Listing of recorded koff by entry.
# target or system: T1, human Protein S (human, UniProt P07225 42-676)
# T1 construct: also called ProS; ProS1
# T1 sequence: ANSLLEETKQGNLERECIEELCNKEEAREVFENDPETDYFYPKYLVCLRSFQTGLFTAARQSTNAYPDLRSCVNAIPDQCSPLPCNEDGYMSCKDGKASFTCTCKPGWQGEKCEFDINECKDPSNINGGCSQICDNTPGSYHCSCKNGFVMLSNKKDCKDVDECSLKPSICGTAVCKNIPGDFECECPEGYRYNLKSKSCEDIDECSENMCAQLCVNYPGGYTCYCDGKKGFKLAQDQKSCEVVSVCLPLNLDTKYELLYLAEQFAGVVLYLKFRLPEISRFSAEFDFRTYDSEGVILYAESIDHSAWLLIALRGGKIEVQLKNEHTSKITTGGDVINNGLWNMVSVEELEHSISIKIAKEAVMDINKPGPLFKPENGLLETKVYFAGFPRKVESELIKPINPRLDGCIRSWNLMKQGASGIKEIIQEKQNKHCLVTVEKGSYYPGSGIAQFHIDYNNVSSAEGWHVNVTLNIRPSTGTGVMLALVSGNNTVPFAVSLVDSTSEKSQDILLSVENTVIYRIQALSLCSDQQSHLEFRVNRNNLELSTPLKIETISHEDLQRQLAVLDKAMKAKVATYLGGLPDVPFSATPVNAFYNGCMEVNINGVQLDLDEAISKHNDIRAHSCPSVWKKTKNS
# protocol description: SPR Biacore X100; antibody captured by anti-human IgG (Fc); Protein S 2-128 nM; 5 mM CaCl2; 1:1 fit

binder: Antibody 11 (antibody, V domains shown, Same variable regions as Antibody 23) VH: QVQLVQSGAEVKKPGASVKVSCKSSGHTFTGYYMHWVRQAPGQGLEWMGWINPNSGDTNYAQKFQGRVTMTRDTSISTAYMEMSRLRSDDTAVYYCARDSQILWFGELGYWGQGTLVTVSS VL: QAVVTQESALTTSPGETVTLTCRSSTGAVTASNYANWVQEKPDHLFTGLIGSTNNRAPGVPARFSGSLIGDKAALTITGAQTEDEAIYFCALWYSDHFVFGGGTKLTVL
unit: s⁻¹
koff: 0.00113
--
binder: Antibody 3 (antibody, V domains shown, Same variable regions as Antibody 15) VH: EVQLVESGGGLVQPGRSLRLSCAASGFTFDDYAMHWVRQAPGKGLEWVSGITWNSGNIGYADSVKGRFTISRDNAKNSLYLHMNSLRIEDTAFYYCAKGRAVSDTFDIWGQGTMVTVSS VL: SYELNQPPSVSVSPGQTASITCSGDKLGDKYASWYQQKPGQSPVVAIYQNSKRPSGIPERFSASNSGNTATLTISGTQALDEADYYCQAWDSSTWVFGGGTKLTVL
unit: s⁻¹
koff: 0.000569
--
binder: Antibody 12 (antibody, V domains shown, Same variable regions as Antibody 24) VH: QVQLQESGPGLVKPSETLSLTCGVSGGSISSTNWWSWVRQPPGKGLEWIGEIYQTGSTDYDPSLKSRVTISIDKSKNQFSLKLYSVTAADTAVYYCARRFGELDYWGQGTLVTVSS VL: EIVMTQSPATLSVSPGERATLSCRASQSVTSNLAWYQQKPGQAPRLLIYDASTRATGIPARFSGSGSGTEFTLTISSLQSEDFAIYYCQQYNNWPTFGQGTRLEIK
unit: s⁻¹
koff: 0.00947
